Target: androgen receptor (AR) (Homo sapiens)
Conditions: VCaP cells, 1 nM DHT
PROPERTY: activity in VCaP GRE2-luciferase assay (in words)

- SMILES REPR: "CSc1ccc(C(N)=O)cc1-c1ccc[nH]1"
  MEASUREMENT: "no activity"
- SMILES REPR: "CC(C)COc1ccc(C(N)=O)cc1-c1ccc2c(cnn2C)c1"
  MEASUREMENT: "inactive"
- SMILES REPR: "CSc1ncc(C(N)=O)cc1-c1ccc2c(cnn2C)c1"
  MEASUREMENT: "loss of activity"
- SMILES REPR: "CSc1ccc(C(N)=O)cc1-c1ccncc1"
  MEASUREMENT: "loss of activity"
- SMILES REPR: "COc1cc(-c2cc(C(N)=O)ccc2SC)ccc1N"
  MEASUREMENT: "loss of activity"
- SMILES REPR: "Cn1ncc2cc(-c3cc(C(N)=O)ccc3F)ccc21"
  MEASUREMENT: "inactive"
- SMILES REPR: "CSc1ccc(C(N)=O)cc1-c1ccc2nccn2c1"
  MEASUREMENT: "no activity"
- SMILES REPR: "CSc1ccc(C(N)=O)cc1-c1cccc2c1CC(=O)N2"
  MEASUREMENT: "no activity"

====

Target: androgen receptor (AR) (Homo sapiens, UniProt P10275)
Conditions: read-out: VCaP GRE2-luciferase IC50; VCaP cells, 1 nM DHT, 24 h, 0–30 µM compound
PROPERTY: log10(IC50) (log10 of the value in µM)

- SMILES REPR: "CSc1ccc(C(N)=O)cc1-c1ccc2[nH]ccc2c1"
  MEASUREMENT: 1.01
- SMILES REPR: "CSc1ccc(C(N)=O)cc1-c1ccc2c(ccn2C)c1"
  MEASUREMENT: -1.05
- SMILES REPR: "CSc1ccc(C(N)=O)cc1-c1ccno1"
  MEASUREMENT: 0.87
- SMILES REPR: "CSc1ccc(C(N)=O)cc1-c1ccc2occc2c1"
  MEASUREMENT: -0.22
- SMILES REPR: "CSc1ccc(C(N)=O)cc1-c1c(C)noc1C"
  MEASUREMENT: 0.67

====

Experiment: in vitro
Format: in vitro ADME
Settings: human, Caco-2; basolateral to apical; read-out: Caco2 permeability Papp B2A
PROPERTY: Papp B→A (×10⁻⁶ cm/s)

- SMILES REPR: "CSc1ccc(C(N)=O)cc1-c1ccc2c(cnn2C)c1"
  PROPERTY: "Papp B→A"
  MEASUREMENT: 39.4

====

Target: androgen receptor (AR) (Homo sapiens, UniProt P10275)
Sequence (P10275 1-920): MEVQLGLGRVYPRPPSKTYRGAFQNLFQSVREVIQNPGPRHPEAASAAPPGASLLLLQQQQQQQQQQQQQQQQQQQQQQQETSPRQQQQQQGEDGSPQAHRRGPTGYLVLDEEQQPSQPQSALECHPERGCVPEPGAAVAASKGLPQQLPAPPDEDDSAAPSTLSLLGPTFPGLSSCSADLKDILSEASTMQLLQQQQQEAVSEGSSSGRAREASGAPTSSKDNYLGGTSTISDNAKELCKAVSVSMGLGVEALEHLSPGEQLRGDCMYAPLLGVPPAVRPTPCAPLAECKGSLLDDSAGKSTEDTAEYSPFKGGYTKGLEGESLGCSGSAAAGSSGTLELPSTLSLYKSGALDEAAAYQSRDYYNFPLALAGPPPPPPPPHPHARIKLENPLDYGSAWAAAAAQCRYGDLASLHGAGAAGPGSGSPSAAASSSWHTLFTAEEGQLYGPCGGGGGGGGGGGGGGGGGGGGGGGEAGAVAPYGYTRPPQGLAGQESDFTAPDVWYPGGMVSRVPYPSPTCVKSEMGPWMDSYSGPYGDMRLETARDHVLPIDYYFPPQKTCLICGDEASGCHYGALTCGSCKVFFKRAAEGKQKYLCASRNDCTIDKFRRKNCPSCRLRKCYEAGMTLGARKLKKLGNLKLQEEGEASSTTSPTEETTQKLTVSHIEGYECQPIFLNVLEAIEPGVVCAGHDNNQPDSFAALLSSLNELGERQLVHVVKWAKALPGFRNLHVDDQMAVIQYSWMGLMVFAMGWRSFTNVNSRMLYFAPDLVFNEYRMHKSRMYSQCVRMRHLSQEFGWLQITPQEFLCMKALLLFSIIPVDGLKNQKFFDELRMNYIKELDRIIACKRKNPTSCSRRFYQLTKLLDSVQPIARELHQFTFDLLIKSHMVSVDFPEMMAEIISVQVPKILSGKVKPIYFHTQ
Settings: from VCaP GRE2-luciferase IC50 and cLogP
Lipophilic Ligand Efficiency (LLE) values by entry

- SMILES REPR: "CSc1ccc(C(N)=O)cc1-c1ccc(F)c(O)c1"
  TESTED SYSTEM: "androgen receptor (AR) (Homo sapiens, UniProt P10275)"
  Lipophilic Ligand Efficiency (LLE): 7.3
- SMILES REPR: "Cn1ncc2cc(-c3cc(C(N)=O)ccc3F)ccc21"
  TESTED SYSTEM: "androgen receptor (AR) (Homo sapiens, UniProt P10275)"
  Lipophilic Ligand Efficiency (LLE): 5.6
- SMILES REPR: "CSc1ccc(C(=O)O)cc1-c1cncnc1"
  TESTED SYSTEM: "androgen receptor (AR) (Homo sapiens, UniProt P10275)"
  Lipophilic Ligand Efficiency (LLE): 8.2
- SMILES REPR: "CSc1ccc(C(N)=O)cc1-c1ccc2c(c1)CCO2"
  TESTED SYSTEM: "androgen receptor (AR) (Homo sapiens, UniProt P10275)"
  Lipophilic Ligand Efficiency (LLE): 4.4
- SMILES REPR: "COc1ccc(C(N)=O)cc1-c1ccc2c(cnn2C)c1"
  TESTED SYSTEM: "androgen receptor (AR) (Homo sapiens, UniProt P10275)"
  Lipophilic Ligand Efficiency (LLE): 5.8

====

Listed below: pIC50 values for each entry.
Target: androgen receptor (AR) (Homo sapiens)
Conditions: read-out: VCaP GRE2-luciferase IC50; VCaP cells, 1 nM DHT, 24 h, 0–30 µM compound
pIC50: −log10 of the molar value.
PROPERTY: pIC50

- SMILES REPR: "CSc1ccc(C(=O)N2CCOCC2)cc1-c1cncnc1"
  MEASUREMENT: 6.59
- SMILES REPR: "CSc1ccc(C(N)=O)cc1-c1ccc2c(cnn2C)c1"
  MEASUREMENT: 6.92
- SMILES REPR: "CN(C)CCNc1ccc(C(N)=O)cc1-c1ccc2c(cnn2C)c1"
  MEASUREMENT: "< 4.52"
- SMILES REPR: "CSc1ncc(C(N)=O)cc1-c1ccc2c(cnn2C)c1"
  MEASUREMENT: "< 4.52"
- SMILES REPR: "CSc1ccc(C(N)=O)cc1-c1cccc2c1CC(=O)N2"
  MEASUREMENT: "< 4.52"
- SMILES REPR: "CCc1ccc(C(N)=O)cc1-c1ccc2c(cnn2C)c1"
  MEASUREMENT: "< 4.52"
- SMILES REPR: "Cn1ncc2cc(-c3cc(C(N)=O)ccc3N3CCOCC3)ccc21"
  MEASUREMENT: "< 4.52"
- SMILES REPR: "CSc1cc(C(N)=O)cc(-c2ccc3c(cnn3C)c2)c1"
  MEASUREMENT: "< 4.52"
- SMILES REPR: "Cn1ncc2cc(-c3cc(C(N)=O)ccc3C(F)(F)F)ccc21"
  MEASUREMENT: 5.07
- SMILES REPR: "CSc1ccc(C(N)=O)cc1-c1ccc2ncccc2c1"
  MEASUREMENT: 6.10
- SMILES REPR: "Cn1ncc2cc(-c3cc(C(N)=O)ccc3F)ccc21"
  MEASUREMENT: "< 4.52"
- SMILES REPR: "Cc1ccc(C(N)=O)cc1-c1ccc2c(cnn2C)c1"
  MEASUREMENT: "< 4.52"
- SMILES REPR: "CSc1ccc(C(N)=O)cc1-c1cccnc1"
  MEASUREMENT: "< 4.52"
- SMILES REPR: "COc1ccc(C(N)=O)cc1-c1ccc2c(cnn2C)c1"
  MEASUREMENT: "< 4.52"
- SMILES REPR: "CSc1ccc(C(=O)N2CCCCC2)cc1-c1cncnc1"
  MEASUREMENT: 6.89
- SMILES REPR: "CSc1ccc(C(N)=O)cc1-c1ccccc1"
  MEASUREMENT: "< 4.52"
- SMILES REPR: "CSc1ccc(C(N)=O)cc1-c1ccc2ocnc2c1"
  MEASUREMENT: "< 4.52"
- SMILES REPR: "Cn1ncc2cc(-c3cc(C(N)=O)ccc3NCc3ccccc3)ccc21"
  MEASUREMENT: 6.03
- SMILES REPR: "Cn1ncc2cc(-c3cc(C(N)=O)cnc3SCc3ccccc3)ccc21"
  MEASUREMENT: "< 4.52"
- SMILES REPR: "CSc1ccc(C(N)=O)cc1-c1ccc2nccn2c1"
  MEASUREMENT: "< 4.52"
- SMILES REPR: "COc1ncc(C(N)=O)cc1-c1ccc2c(cnn2C)c1"
  MEASUREMENT: "< 4.52"
- SMILES REPR: "Cn1ncc2cc(-c3cc(C(N)=O)ccc3OC(F)(F)F)ccc21"
  MEASUREMENT: "< 4.52"
- SMILES REPR: "CSc1ccc(C(N)=O)cc1-c1ccc2[nH]ncc2c1"
  MEASUREMENT: 6.15
